Reference for the values: patent US11377442B2

target: NR2F6 (Homo sapiens, UniProt P10588); construct: expressed in transfected cells; also transient transfection; assay: NR2F6 agonist screening, Firefly signal cmpd/DMSO; assay type: cell-based; details: 2 uM; clone F4
Sequence (P10588 whole entry): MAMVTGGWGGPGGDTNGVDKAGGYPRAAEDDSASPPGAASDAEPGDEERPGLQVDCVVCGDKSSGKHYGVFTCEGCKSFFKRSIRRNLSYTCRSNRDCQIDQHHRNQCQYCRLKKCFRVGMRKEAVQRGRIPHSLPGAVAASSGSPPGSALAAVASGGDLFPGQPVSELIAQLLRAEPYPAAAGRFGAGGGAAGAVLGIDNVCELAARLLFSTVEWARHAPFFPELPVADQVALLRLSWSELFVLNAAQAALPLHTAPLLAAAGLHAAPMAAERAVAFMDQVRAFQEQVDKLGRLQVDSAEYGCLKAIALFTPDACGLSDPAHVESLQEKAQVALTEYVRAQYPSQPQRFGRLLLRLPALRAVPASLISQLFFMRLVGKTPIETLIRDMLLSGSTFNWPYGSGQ
Recorded Endpoint: Firefly F4, cmpd/DMSO (mean)

>>> measured("O=c1cccc2n1CCN(c1nc(NCC3CCCO3)nc(N3CCOCC3)n1)C2 (stereo not shown) [Compound 33]")
0.8
>>> measured("CC(C)Nc1nc(N2CCCC2)nc(N2CCn3c(cccc3=O)C2)n1 [Compound 35]")
1.1
>>> measured("O=c1cccc2n1CC1CC2CN(c2nc(N3CCCC3)nc(N3CCCC3)n2)C1 (stereo not shown) [Compound 26]")
1.0
>>> measured("CC1CCN(c2nc(NCCN3CCOCC3)nc(N3CC4CC(C3)c3cccc(=O)n3C4)n2)CC1 (stereo not shown) [Compound 43]")
1.0
>>> measured("CNc1c(C#N)c(C(F)(F)F)nc2ccc(Oc3ccccc3)cc12 [Compound Z53]")
0.8
>>> measured("CCCCCCNc1nc(OCC)nc(N2CCn3c(cccc3=O)C2)n1 [Compound 40]")
0.9
>>> measured("CC(C)Nc1nc(N2CCOCC2)nc(N2CCn3c(cccc3=O)C2)n1 [Compound 34]")
0.9
